- Test system: human leukemia cell line K562
- experimental.details: In vitro tumor cell proliferation inhibition (MTT): K562
- Assay type: cell-based
- conditions.used: 72 hours
measured.quantity: IC50

Solved entries (count: 5):
C[C@@H](NC(=O)Nc1ccc(Oc2ncnc3[nH]ncc23)cc1)c1ccccc1; < 50 µM
O=C(Nc1cccc(Oc2ncnc3[nH]ncc23)c1)Nc1cccc(C(F)(F)F)c1; < 50 µM
CC(C)c1cccc(NC(=O)Nc2ccc(Oc3ncnc4[nH]ncc34)c(F)c2)c1; < 50 µM
O=C(Nc1ccc(Oc2ncnc3[nH]ncc23)c(F)c1)Nc1ccc(Cl)c(C(F)(F)F)c1; < 50 µM
O=C(Nc1ccc(C(F)(F)F)cc1)Nc1ccc(Oc2ncnc3[nH]ncc23)c(F)c1; 2.7 µM

Ask: For CC(C)(C)c1cc(NC(=O)Nc2ccc(Sc3ncnc4[nH]ncc34)cc2)no1 , write its IC50.
Result: < 50 µM

Ask: For O=C(Nc1ccc(Oc2ncnc3[nH]ncc23)cc1)Nc1cc(C(F)(F)F)cc(C(F)(F)F)c1 , write its IC50.
Result: 9.12 µM

Ask: For C[C@H](NC(=O)Nc1ccc(Nc2ncnc3[nH]ncc23)cc1)c1ccccc1 , write its IC50.
Result: < 50 µM

Ask: For O=C(Nc1ccccc1)Nc1ccc(Oc2ncnc3[nH]ncc23)cc1 , write its IC50.
Result: < 50 µM

Ask: For O=C(Nc1ccc(Oc2ncnc3[nH]ncc23)cc1)Nc1ccc(Cl)c(C(F)(F)F)c1 , write its IC50.
Result: < 50 µM

Ask: For CC(C)(C)c1cc(NC(=O)Nc2ccc(Oc3ncnc4[nH]ncc34)cc2)on1 , write its IC50.
Result: 3 to 10 µM

Ask: For C[C@H](NC(=O)Nc1ccc(Oc2ncnc3[nH]ncc23)cc1)c1ccccc1 , write its IC50.
Result: < 50 µM

Ask: For O=C(Nc1ccc(Oc2ncnc3[nH]ncc23)cc1)Nc1ccc(C(F)(F)F)cc1Cl , write its IC50.
Result: < 50 µM

Ask: For CC(C)(C)c1cc(NC(=O)Nc2ccc(Oc3ncnc4[nH]ncc34)c(F)c2)no1 , write its IC50.
Result: 3 to 10 µM

Ask: For CC(C)(C)c1cc(NC(=O)Nc2ccc(Oc3ncnc4[nH]ncc34)cc2)n(-c2ccccc2)n1 , write its IC50.
Result: < 50 µM

---

Each entry below carries its recorded Activity inhibition rate PDGFRα (h).
- measured.target: PDGFRα (Homo sapiens, UniProt P16234)
- Sequence (P16234 24-1089): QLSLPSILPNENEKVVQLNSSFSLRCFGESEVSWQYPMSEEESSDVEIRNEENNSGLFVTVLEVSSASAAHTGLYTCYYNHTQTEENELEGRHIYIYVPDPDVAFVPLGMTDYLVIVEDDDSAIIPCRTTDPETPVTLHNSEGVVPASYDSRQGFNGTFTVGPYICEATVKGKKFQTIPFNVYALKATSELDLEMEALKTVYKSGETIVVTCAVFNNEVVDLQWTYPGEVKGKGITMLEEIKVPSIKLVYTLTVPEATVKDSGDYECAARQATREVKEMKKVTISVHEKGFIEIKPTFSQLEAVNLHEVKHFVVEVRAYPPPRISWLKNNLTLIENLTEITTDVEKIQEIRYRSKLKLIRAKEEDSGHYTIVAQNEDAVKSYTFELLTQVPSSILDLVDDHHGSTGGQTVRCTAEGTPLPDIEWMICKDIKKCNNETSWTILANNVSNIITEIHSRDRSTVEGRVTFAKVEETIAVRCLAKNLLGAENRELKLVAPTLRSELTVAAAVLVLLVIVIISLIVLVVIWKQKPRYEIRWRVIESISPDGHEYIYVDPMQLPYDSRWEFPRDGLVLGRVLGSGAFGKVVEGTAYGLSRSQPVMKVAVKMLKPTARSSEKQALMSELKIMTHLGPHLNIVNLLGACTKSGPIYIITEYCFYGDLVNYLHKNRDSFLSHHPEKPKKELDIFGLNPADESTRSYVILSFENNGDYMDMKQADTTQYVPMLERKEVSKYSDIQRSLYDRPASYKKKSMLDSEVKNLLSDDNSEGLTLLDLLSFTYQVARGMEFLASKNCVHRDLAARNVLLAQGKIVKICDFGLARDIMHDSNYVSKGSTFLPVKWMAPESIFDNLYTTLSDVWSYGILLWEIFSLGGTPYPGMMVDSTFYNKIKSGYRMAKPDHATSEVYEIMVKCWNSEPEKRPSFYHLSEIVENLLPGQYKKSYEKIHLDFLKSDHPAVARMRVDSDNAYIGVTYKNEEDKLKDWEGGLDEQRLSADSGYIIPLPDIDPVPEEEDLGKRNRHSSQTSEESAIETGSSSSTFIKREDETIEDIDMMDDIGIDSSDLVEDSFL
- experimental.details: Kinase inhibition activity test, isotope labeling: PDGFRα
- Format: biochemical
- conditions.used: test compound at a concentration of 10 μM

Solved entries (count: 3):
C[C@H](NC(=O)Nc1ccc(Nc2ncnc3[nH]ncc23)cc1)c1ccccc1; >30%
CC(C)(C)c1cc(NC(=O)Nc2ccc(Oc3ncnc4[nH]ncc34)c(F)c2)no1; >50%
CC(C)(C)c1cc(NC(=O)Nc2ccc(Oc3ncnc4[nH]ncc34)cc2)on1; >50%

Ask: For CC(C)(C)c1cc(NC(=O)Nc2ccc(Sc3ncnc4[nH]ncc34)cc2)no1 , write its Activity inhibition rate PDGFRα (h).
Result: >50%

Ask: For CC(C)(C)c1cc(NC(=O)Nc2ccc(Oc3ncnc4[nH]ncc34)cc2)n(-c2ccccc2)n1 , write its Activity inhibition rate PDGFRα (h).
Result: >50%
